Measured values drawn from paper PMC8981555 for this set.

- STUDY_TARGET: jack bean urease (Canavalia ensiformis, UniProt P07374)
- Sequence (P07374 whole entry, looked up): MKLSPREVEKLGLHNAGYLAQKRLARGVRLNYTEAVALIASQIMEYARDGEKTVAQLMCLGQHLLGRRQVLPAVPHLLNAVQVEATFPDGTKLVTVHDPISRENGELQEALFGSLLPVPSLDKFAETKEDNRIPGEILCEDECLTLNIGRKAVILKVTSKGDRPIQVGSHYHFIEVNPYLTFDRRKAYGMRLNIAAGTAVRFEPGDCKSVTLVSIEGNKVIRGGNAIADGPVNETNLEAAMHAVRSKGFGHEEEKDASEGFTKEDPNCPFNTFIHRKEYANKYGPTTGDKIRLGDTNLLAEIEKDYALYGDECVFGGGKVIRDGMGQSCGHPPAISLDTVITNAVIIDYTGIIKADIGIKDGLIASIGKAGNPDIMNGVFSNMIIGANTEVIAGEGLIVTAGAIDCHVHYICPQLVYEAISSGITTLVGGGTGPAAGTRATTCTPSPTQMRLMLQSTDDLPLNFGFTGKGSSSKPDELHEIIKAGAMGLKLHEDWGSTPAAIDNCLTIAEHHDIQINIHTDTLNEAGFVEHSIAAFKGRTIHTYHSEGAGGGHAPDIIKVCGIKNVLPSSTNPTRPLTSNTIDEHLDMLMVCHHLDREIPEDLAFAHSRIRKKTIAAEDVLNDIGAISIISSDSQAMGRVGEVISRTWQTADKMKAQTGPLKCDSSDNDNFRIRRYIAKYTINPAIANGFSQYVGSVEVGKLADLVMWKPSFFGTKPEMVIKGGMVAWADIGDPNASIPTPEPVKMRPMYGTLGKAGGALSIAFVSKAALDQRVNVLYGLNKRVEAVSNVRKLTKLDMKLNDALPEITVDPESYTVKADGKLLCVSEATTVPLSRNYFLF
- EXPERIMENTAL_PROTOCOL: Enzyme kinetic studies
- Format: biochemical
ENDPOINT_LABEL: pKi
# reply with the number alone; pKi is -log10 of concentration in mol/L

Value (pKi, jack bean urease (Canavalia ensiformis, UniProt P07374)) for record CCCCCCCC(=O)NC(=S)Nc1c(C)cccc1C = 5.03

----------
pIC50 values recorded for UniProt P07374
# reply with the number alone; pIC50 is -log10 of concentration in mol/L

# MOLECULE, pIC50
records = [
    ("CCCCCCCC(=O)NC(=S)Nc1c(C)cccc1C [Compound 3g]", 4.82),
    ("CCCCCCCC(=O)NC(=S)Nc1cc(C)ccc1C [Compound 3d]", 4.22),
    ("CCCCCCCC(=O)NC(=S)Nc1ccc(C(F)(F)F)cc1 [Compound 3m]", 4.51),
    ("CCCCCCCCCCCC(=O)NC(=S)Nc1ccc(Cl)c(Cl)c1 [Compound 3p]", 4.70),
    ("CCCCCCCC(=O)NC(=S)Nc1cc([N+](=O)[O-])ccc1OC [Compound 3h]", 4.51),
    ("CCCCCCCC(=O)NC(=S)Nc1ccc(C)c(C)c1 [Compound 3f]", 4.40),
]

Value (pIC50, UniProt P07374) for record CCCCCCCC(=O)NC(=S)Nc1c(Cl)cccc1Cl [Compound 3i] = 4.66

Value (pIC50, UniProt P07374) for record CCCCCCCC(=O)NC(=S)Nc1cccc(C)c1C [Compound 3k] = 4.34

Value (pIC50, UniProt P07374) for record CCCCCCCC(=O)NC(=S)Nc1ccccc1Sc1ccccc1 [Compound 3j] = 4.41

----------
Overview of reported % inhibition across a group of compounds:
- STUDY_TARGET: jack bean urease (Canavalia ensiformis)
- EXPERIMENTAL_PROTOCOL: Urease inhibition assay
- Type: biochemical
- MEASUREMENT_SETUP: value in parentheses after IC50; concentration not given
Enter the number, and then the unit.

Worked set:
# COMPOUND, % inhibition
rows = [
    ("NC(N)=S [Thiourea, reference compound]", "92.1%"),
    ("CCCCCCCC(=O)NC(=S)Nc1c(Cl)cccc1Cl", "91.4%"),
    ("CCCCCCCCCCCC(=O)NC(=S)Nc1ccc(Cl)c(Cl)c1", "85.2%"),
    ("CCCCCCCC(=O)NC(=S)Nc1cccc(C)c1C", "85.8%"),
    ("CCCCCCCC(=O)NC(=S)Nc1ccccc1Sc1ccccc1", "86.5%"),
]

Item: CCCCCCCC(=O)NC(=S)Nc1cc(C)ccc1C | % inhibition: 61.3%

Item: CCCCCCCC(=O)NC(=S)Nc1c(C)cccc1C | % inhibition: 96.3%

Item: CCCCCCCC(=O)NC(=S)Nc1ccc(C)c(C)c1 | % inhibition: 76.2%

Item: CCCCCCCC(=O)NC(=S)Nc1ccc(C(F)(F)F)cc1 | % inhibition: 95.9%

Item: CCCCCCCC(=O)NC(=S)Nc1cc([N+](=O)[O-])ccc1OC | % inhibition: 88.1%

----------
- STUDY_TARGET: jack bean urease (Canavalia ensiformis, UniProt P07374)
- EXPERIMENTAL_PROTOCOL: Enzyme kinetic studies
- Format: biochemical
- MEASUREMENT_SETUP: derived from Lineweaver–Burk and Dixon plots
ENDPOINT_LABEL: pKi
# reply with the number alone; pKi is -log10 of concentration in mol/L

Value (pKi, jack bean urease (Canavalia ensiformis, UniProt P07374)) for record NC(N)=S [Thiourea, reference compound] = 4.74
